Recorded values, source paper PMC8037182.

# Lookup of reported OD490 value, Well 1 keyed by entry
Tested on: Hela cell line
Test: Cytotoxicity MTS assay, Hela cell line;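 note: blank control wells received 0.025% DMSO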
Format: cell-based
Settings: Hela cell line, MTS, 50μM, first assay

CCOC(=O)c1c(C2NC(=O)NC(C)=C2C(=O)Nc2ccccc2OC)[nH]c(C(=O)OC)c1C (stereo not shown) [D1] : 2.0719
CCOC(=O)c1c(C2NC(=O)NC(C)=C2C(=O)Nc2ccccc2C)[nH]c(C(=O)OC)c1C (stereo not shown) [D2] : 2.7237
CCOC(=O)c1[nH]c(C2NC(=O)NC(C)=C2C(=O)Nc2ccc(Cl)cc2)c(C(=O)OCC)c1C (stereo not shown) : 2.5239

Next molecule, please.
OD490 value, Well 1 for CCOC(=O)c1c(C2NC(=O)NC(C)=C2C(=O)Nc2ccccc2)[nH]c(C(=O)OC)c1C (stereo not shown) is 1.6416
